The reader will find reported inhibition at 1 µM values listed item by item below.
- tested-target: panel of 255 wild-type kinases (Homo sapiens)
- method-summary: Kinase panel profiling at 1 µmol/L (MSA or IMAP), percentage inhibition
- Assay type: biochemical
- condition-summary: kinase PDHK4; 1 µmol/L single concentration; read-out: %-inhibition at 1 µmol/L, PDHK4
Express the result in % but write the number alone.

Would you please look over these solved cases?
Cc1nc(NC(=O)N2CCC[C@H]2C(N)=O)sc1-c1ccnc(C(C)(C)C(F)(F)F)c1 :: 0.0757
COC(=O)N[C@@H](C)CNc1nccc(-c2cn(C(C)C)nc2-c2cc(Cl)cc(NS(C)(=O)=O)c2F)n1 :: -2.11
CCN1CCN(c2ccc(Nc3cc(N(C)C(=O)Nc4c(Cl)c(OC)cc(OC)c4Cl)ncn3)cc2)CC1 :: -1.46
Cn1cnc2c(F)c(Nc3ccc(Br)cc3F)c(C(=O)NOCCO)cc21 :: -0.429
Cn1cc(-c2cc3c(N4CCN(c5ncc([C@@](C)(N)c6ccc(F)cc6)cn5)CC4)ncnn3c2)cn1 :: 5.61
COc1ccc(CN2C3CC2CN(c2ccc(-c4cc(OCC(C)(C)O)cn5ncc(C#N)c45)cn2)C3)cn1 :: -2.71

Please give measured inhibition at 1 µM of the following entry: `Cc1cc(Nc2ncnc3ccc(NC4=NC(C)(C)CO4)cc23)ccc1Oc1ccn2ncnc2c1`
7.57

* * *

- Test system: 134 cancer cell lines
- method-summary: Cell viability assay (ATPlite, 72 hours), IC50 on cancer cell line panel
- condition-summary: Homo sapiens, NCI-H1650, read-out: IC50 in cell proliferation assay
property-label: IC50
Write the numeric value and follow it with the unit.

C=CC(=O)N1CCC([C@@H]2CCNc3c(C(N)=O)c(-c4ccc(Oc5ccccc5)cc4)nn32)CC1 [zanubrutinib] :: 13.9 µM

Now consider a different compound.
Given CNC(=O)c1ccc(-c2cnc3ncc(Cc4ccc5ncccc5c4)n3n2)cc1F [capmatinib] , report its IC50 on 134 cancer cell lines.
9.45 µM

* * *

- System: 134 cancer cell lines
- method-summary: Cell viability assay (ATPlite, 72 hours), IC50 on cancer cell line panel
- condition-summary: Homo sapiens, SNU-16, read-out: IC50 in cell proliferation assay
property-label: pIC50
Interpret pIC50 as the negative base-10 log of the concentration measured in mol/L.

Determine from records and report pIC50 for `C[C@H]1Oc2cc(cnc2N)-c2c(nn(C)c2C#N)CN(C)C(=O)c2ccc(F)cc21`
4.50

* * *

Let's look at some compounds and their measured inhibition at 1 µM.
- tested-target: UniProt P43405
- method-summary: Kinase panel profiling at 1 µmol/L (MSA or IMAP), percentage inhibition
- Type: biochemical
- condition-summary: kinase SYK; 1 µmol/L single concentration; read-out: %-inhibition at 1 µmol/L, SYK
Lab book: enter the figure in %, no units written.

Before answering, review these 8 worked examples.
COc1cc2ncnc(Nc3ccc(F)c(Cl)c3)c2cc1NC(=O)/C=C/CN1CCCCC1 :: -8
CCN1CCN(c2ccc(Nc3cc(N(C)C(=O)Nc4c(Cl)c(OC)cc(OC)c4Cl)ncn3)cc2)CC1 :: -17
Cc1nc(NC(=O)N2CCC[C@H]2C(N)=O)sc1-c1ccnc(C(C)(C)C(F)(F)F)c1 :: -23
CCc1nc(C(N)=O)c(Nc2ccc(N3CCC(N4CCN(C)CC4)CC3)c(OC)c2)nc1NC1CCOCC1 :: 70
CCn1c(=O)c(-c2cc(NC(=O)Nc3ccccc3)c(F)cc2Br)cc2cnc(NC)cc21 :: -8
O=C(Nc1cnn2ccc(N3CCC[C@@H]3c3cc(F)ccc3F)nc12)N1CC[C@H](O)C1 :: -8
C[C@H](Nc1ncnc2nc[nH]c12)c1cc2cccc(Cl)c2c(=O)n1-c1ccccc1 :: -2.35
CCN1C(=O)N(c2c(F)c(OC)cc(OC)c2F)Cc2cnc3[nH]c(CN4CCOCC4)cc3c21 :: -4.26

Give inhibition at 1 µM for the following compound: `FC(F)(F)c1ccc(CNc2ccc(Cc3c[nH]c4ncc(Cl)cc34)cn2)cn1`
-6

State its inhibition at 1 µM: `COc1ccc(CN2C3CC2CN(c2ccc(-c4cc(OCC(C)(C)O)cn5ncc(C#N)c45)cn2)C3)cn1`
7.5

* * *

- tested-target: panel of 255 wild-type kinases (Homo sapiens, UniProt Q00526)
- Sequence (Q00526 whole entry): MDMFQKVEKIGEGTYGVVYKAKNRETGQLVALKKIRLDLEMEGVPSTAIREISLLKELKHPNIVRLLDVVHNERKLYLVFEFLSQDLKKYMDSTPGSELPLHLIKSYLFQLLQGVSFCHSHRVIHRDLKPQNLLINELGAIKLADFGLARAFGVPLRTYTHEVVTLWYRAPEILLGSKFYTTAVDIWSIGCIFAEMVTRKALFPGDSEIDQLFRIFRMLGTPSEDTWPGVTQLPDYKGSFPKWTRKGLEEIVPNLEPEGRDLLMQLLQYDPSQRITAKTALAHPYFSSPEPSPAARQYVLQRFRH
- method-summary: Kinase panel profiling at 1 µmol/L (MSA or IMAP), percentage inhibition
- Assay type: biochemical
- condition-summary: CDK3/CycE1 kinase assay; 1 µmol/L single concentration; read-out: %-inhibition CDK3/CycE1
inhibition at 1 µM: recorded values
Please state the figure in %; there is no need to write the unit.

Answered cases to consult:
Cc1nc(NC(=O)N2CCC[C@H]2C(N)=O)sc1-c1ccnc(C(C)(C)C(F)(F)F)c1 [alpelisib] :: -4
O=C(Nc1cnn2ccc(N3CCC[C@@H]3c3cc(F)ccc3F)nc12)N1CC[C@H](O)C1 [larotrectinib] :: 1.79

Specify measured inhibition at 1 µM for CO[C@]1(C(=O)N[C@@H](C)c2ccc(-n3cc(F)cn3)nc2)CC[C@H](c2nc(C)cc(Nc3cc(C)[nH]n3)n2)CC1 [pralsetinib] .
42

Name the recorded inhibition at 1 µM of the item Cc1cc(Nc2ncnc3ccc(NC4=NC(C)(C)CO4)cc23)ccc1Oc1ccn2ncnc2c1 [tucatinib] in your answer.
-3.48

Name the recorded inhibition at 1 µM of the molecule listed here: Cn1cnc2c(F)c(Nc3ccc(Br)cc3F)c(C(=O)NOCCO)cc21 [binimetinib]
-4.57

Please give the documented inhibition at 1 µM of CCN1CCN(c2ccc(Nc3cc(N(C)C(=O)Nc4c(Cl)c(OC)cc(OC)c4Cl)ncn3)cc2)CC1 [infigratinib]
-10

Please report inhibition at 1 µM for the following molecule: Cn1cnc2c(F)c(Nc3ccc(Br)cc3Cl)c(C(=O)NOCCO)cc21 [selumetinib]
-9

# return recorded inhibition at 1 µM for input CCc1nc(C(N)=O)c(Nc2ccc(N3CCC(N4CCN(C)CC4)CC3)c(OC)c2)nc1NC1CCOCC1 [gilteritinib]
7

* * *

- tested-target: panel of 255 wild-type kinases (Homo sapiens)
- method-summary: Kinase panel profiling at 1 µmol/L (MSA or IMAP), percentage inhibition
- Assay type: biochemical
- condition-summary: kinase TIE2; 1 µmol/L single concentration; read-out: %-inhibition at 1 µmol/L, TIE2
property-label: inhibition at 1 µM (%)
Express your answer in %, writing the number without its unit.

CCn1c(=O)c(-c2cc(NC(=O)Nc3ccccc3)c(F)cc2Br)cc2cnc(NC)cc21 :: 79
CCc1nc(C(N)=O)c(Nc2ccc(N3CCC(N4CCN(C)CC4)CC3)c(OC)c2)nc1NC1CCOCC1 :: 41
CO[C@]1(C(=O)N[C@@H](C)c2ccc(-n3cc(F)cn3)nc2)CC[C@H](c2nc(C)cc(Nc3cc(C)[nH]n3)n2)CC1 :: 5.49
C[C@H](Nc1ncnc2nc[nH]c12)c1cc2cccc(Cl)c2c(=O)n1-c1ccccc1 :: -0.0949
Cc1cc(Nc2ncnc3ccc(NC4=NC(C)(C)CO4)cc23)ccc1Oc1ccn2ncnc2c1 :: -2.82

Dear colleague, please send me the reported inhibition at 1 µM for `COc1cc2ncnc(Nc3ccc(F)c(Cl)c3)c2cc1NC(=O)/C=C/CN1CCCCC1` when you can.
16

Given the compound `Cn1cc(-c2cc3c(N4CCN(c5ncc([C@@](C)(N)c6ccc(F)cc6)cn5)CC4)ncnn3c2)cn1` , write its reported inhibition at 1 µM.
3.23

* * *

- tested-target: panel of 255 wild-type kinases (Homo sapiens)
- method-summary: Kinase panel profiling at 1 µmol/L (MSA or IMAP), percentage inhibition
- Assay type: biochemical
- condition-summary: kinase EPHA7; 1 µmol/L single concentration; read-out: %-inhibition at 1 µmol/L, EPHA7
Below, each of the molecules is paired with its reported inhibition at 1 µM value.
Expressed in %, but write only the number.

As a guide, the following entries are already answered.
CCn1c(=O)c(-c2cc(NC(=O)Nc3ccccc3)c(F)cc2Br)cc2cnc(NC)cc21 :: 54
CO[C@]1(C(=O)N[C@@H](C)c2ccc(-n3cc(F)cn3)nc2)CC[C@H](c2nc(C)cc(Nc3cc(C)[nH]n3)n2)CC1 :: 68
COC(=O)N[C@@H](C)CNc1nccc(-c2cn(C(C)C)nc2-c2cc(Cl)cc(NS(C)(=O)=O)c2F)n1 :: 5

Let's switch to this molecule now.
Give me measured inhibition at 1 µM, please, for this molecule: `Cc1nc(NC(=O)N2CCC[C@H]2C(N)=O)sc1-c1ccnc(C(C)(C)C(F)(F)F)c1`
-1.3

* * *

- tested-target: panel of 255 wild-type kinases (Homo sapiens)
- method-summary: Kinase panel profiling at 1 µmol/L (MSA or IMAP), percentage inhibition
- Format: biochemical
- condition-summary: CHK1 kinase assay; 1 µmol/L single concentration; read-out: %-inhibition CHK1
property-label: inhibition at 1 µM (%)
Give the quantity in %, number only.

Here's what some known entries look like.
C=CC(=O)N1CCC([C@@H]2CCNc3c(C(N)=O)c(-c4ccc(Oc5ccccc5)cc4)nn32)CC1 :: 16
CCN1CCN(c2ccc(Nc3cc(N(C)C(=O)Nc4c(Cl)c(OC)cc(OC)c4Cl)ncn3)cc2)CC1 :: -1.07
C[C@H]1Oc2cc(cnc2N)-c2c(nn(C)c2C#N)CN(C)C(=O)c2ccc(F)cc21 :: 12
O=C(Nc1cnn2ccc(N3CCC[C@@H]3c3cc(F)ccc3F)nc12)N1CC[C@H](O)C1 :: 14
CN1CCN(c2ccc(C(=O)Nc3n[nH]c4ccc(Cc5cc(F)cc(F)c5)cc34)c(NC3CCOCC3)c2)CC1 :: 14
Cn1cnc2c(F)c(Nc3ccc(Br)cc3F)c(C(=O)NOCCO)cc21 :: 9
CCn1c(=O)c(-c2cc(NC(=O)Nc3ccccc3)c(F)cc2Br)cc2cnc(NC)cc21 :: 3.57

Answer with the recorded inhibition at 1 µM of `Cc1cc(Nc2ncnc3ccc(NC4=NC(C)(C)CO4)cc23)ccc1Oc1ccn2ncnc2c1` only.
5.71

Origin of measurements: paper PMC9516332
